Provenance of the data: ChEMBL document CHEMBL1152524

# experiment-notes: Antioxidant activity assessed as ferrous ion chelating activity after 30 mins by spectrophotometry
# Type: functional
pEC50: −log10 of the molar value.
Please mark Fulfilled if the recorded pEC50 is equal to or greater than 4, and Not fulfilled if it falls below.

Previously resolved entries follow.
{"compound": "COc1cc(C2Oc3cc([C@H]4Oc5cc(O)cc(O)c5C(=O)[C@@H]4O)ccc3OC2COC(=O)c2ccc([N+](=O)[O-])cc2)ccc1O (relative stereo)", "label": "Not fulfilled"}
{"compound": "COc1cc(C2Oc3cc([C@H]4Oc5cc(O)cc(O)c5C(=O)[C@@H]4O)ccc3OC2CO)ccc1O (stereo partly specified)", "label": "Not fulfilled"}
{"compound": "O=C([O-])CN(CCN(CC(=O)[O-])CC(=O)O)CC(=O)O.[Na+].[Na+] [EDETATE DISODIUM ANHYDROUS]", "label": "Fulfilled"}

Now consider a different compound.
Could you please find out whether COc1cc(C2Oc3cc([C@H]4Oc5cc(O)cc(O)c5C(=O)[C@@H]4O)ccc3OC2COC(=O)c2cc([N+](=O)[O-])cc([N+](=O)[O-])c2)ccc1O (relative stereo) has pEC50 that meets 4 or exceeds it?
Not fulfilled

###

I'd appreciate it if you could supply pEC50 values for the items below.
# experiment-notes: Antioxidant activity assessed as ferrous ion chelating activity after 30 mins by spectrophotometry
# Format: functional
One number for each entry, as −log10 of the molar value.

Please review the entries below; each comes with its answer.
{"compound": "COc1cc(C2Oc3cc([C@H]4Oc5cc(O)cc(O)c5C(=O)[C@@H]4O)ccc3OC2COC(=O)c2ccccc2)ccc1O (relative stereo)", "pEC50": 3.98}
{"compound": "COc1cc(C2Oc3cc([C@H]4Oc5cc(O)cc(O)c5C(=O)[C@@H]4O)ccc3OC2COC(=O)/C=C/c2ccc(C)cc2)ccc1O (relative stereo)", "pEC50": 3.87}
{"compound": "COc1cc(C2Oc3cc([C@H]4Oc5cc(O)cc(O)c5C(=O)[C@@H]4O)ccc3OC2COC(=O)c2ccc(OC)c(OC)c2)ccc1O (mixture of isomers)", "pEC50": 4.11}
{"compound": "COc1cc(C2Oc3cc([C@H]4Oc5cc(O)cc(O)c5C(=O)[C@@H]4O)ccc3OC2COC(=O)c2cccc(Cl)c2)ccc1O (stereo partly drawn)", "pEC50": 3.97}
{"compound": "COc1cc(C2Oc3cc([C@H]4Oc5cc(O)cc(O)c5C(=O)[C@@H]4O)ccc3OC2COC(=O)/C=C/c2ccc(Cl)cc2)ccc1O (relative stereo)", "pEC50": 4.06}

Give pEC50 for all compounds that follow.
1. COc1cc(C2Oc3cc([C@H]4Oc5cc(O)cc(O)c5C(=O)[C@@H]4O)ccc3OC2COC(=O)c2ccc(N)cc2)ccc1O (relative stereo)
2. COc1cc(C2Oc3cc([C@H]4Oc5cc(O)cc(O)c5C(=O)[C@@H]4O)ccc3OC2COC(=O)c2ccc3c(c2)OCO3)ccc1O (relative stereo)
3. O=c1c(O)c(-c2ccc(O)c(O)c2)oc2cc(O)cc(O)c12

1: 3.89; 2: 3.97; 3: 3.63
